// provenance: PubChem BioAssay (NCI)

# Tested on: 786-0 renal
# assayMethodText: NCI tumour cell line growth inhibition, 48 h; in the data active = GI50 below about 0.43 µM; inactive = the rest
The reply should name one outcome from active, inactive

As a guide, the following entries are already answered.
Task: Returns: the outcome recorded for Oc1ccc(Cc2ccc(O)c(C3CC(c4ccc(Cl)cc4)=NN3)c2)cc1C1CC(c2ccc(Cl)cc2)=NN1 (configuration not stated) in this assay.
Result: inactive

Task: Returns: the outcome recorded for `O=C(NS(=O)(=O)c1ccc(NC[C@H]2COCCO2)c([N+](=O)[O-])c1)c1ccc(N2CCN(CC3=C(c4ccc(Cl)cc4)CC4(CCC4)CC3)CC2)cc1Oc1cnc2[nH]ccc2c1` in this assay.
Result: inactive

Task: Returns: the outcome recorded for `FC(F)(F)c1cc(-c2ncn(/C=C\c3nnco3)n2)cc(C(F)(F)F)c1` in this assay.
Result: active

Task: Returns: the outcome recorded for Cn1c(NCC(CN2CCCC2)OC(=O)c2ccccc2)cc(=O)n(C)c1=O (configuration not stated) in this assay.
Result: inactive

Task: Returns: the outcome recorded for CCN(CC)CC(O)COc1c(Br)c(Br)c(Br)c2c1OC(C)(C)C2 (configuration not stated) in this assay.
Result: inactive

More entries:
Task: Returns: the outcome recorded for `O=C1C(=C([O-])c2ccccc2)C(=O)c2ccccc21.O=C1C(=C([O-])c2ccccc2)C(=O)c2ccccc21.[Co+2]` in this assay.
Result: inactive

Task: Returns: the outcome recorded for `NC(=O)CCc1ccccc1Oc1nccc(-c2c(-c3ccc(F)cc3)ncn2C2CCNCC2)n1` in this assay.
Result: inactive

---

# System: NCI-H522 lung
# assayMethodText: NCI tumour cell line growth inhibition, 48 h
parameterMeasured: TGI (µM)
// units = µM; emit number, no label

Task: Look up NCI-H522 lung data: TGI of Oc1ccc(Cc2ccc(O)c(C3CC(c4ccc(Cl)cc4)=NN3)c2)cc1C1CC(c2ccc(Cl)cc2)=NN1 (stereo not given) , then report it.
Result: 9.88

Task: Look up NCI-H522 lung data: TGI of `CC(=O)SC(SC(C)=O)SC(C)=O` , then report it.
Result: 45.2

Task: Look up NCI-H522 lung data: TGI of `O=C(O)c1ccc(C(=O)O)c(C(=O)O)c1.[NH-]C1CCCCC1[NH-].[Pt+2]` , then report it.
Result: 24.7

---

# Tested on: SNB-19 CNS
# assayMethodText: NCI tumour cell line growth inhibition, 48 h
parameterMeasured: TGI (µM)
// units = µM; emit number, no label

Task: Report measured TGI; entry is `CC(CNC(=O)c1ccccc1)(CNC(=O)c1ccccc1)[N+](=O)[O-]`
Result: 73.3

More entries:
Task: Report measured TGI; entry is COc1ccc(C2CC(c3ccc4ccccc4c3)=NN2c2nc(O)c(C3=c4cc(OC)ccc4=NC3=O)s2)cc1 (centres undefined)
Result: 0.592

Task: Report measured TGI; entry is `CN(CSc1ccc(Cl)cc1)c1ccc(CSc2ccc(Cl)cc2)cc1`
Result: 23.2

Task: Report measured TGI; entry is `CC[C@@H]1CC[C@@H]2[C@H](CC[C@]3(C)[C@@H](OC(C)=O)CC[C@@H]23)[C@H]1C(=O)OC`
Result: 72.4

---

# System: HS 578T breast
# assayMethodText: NCI tumour cell line growth inhibition, 48 h; in the data active means GI50 below about 0.43 µM; inactive means the rest
The reply should name one outcome from T (active), F (inactive)

As a guide, the following entries are already answered.
Task: Returns: the outcome recorded for `COC(=O)[C@@H](C)C[C@H](Cc1ccccc1)NC(=O)c1csc([C@@H](C[C@H](C(C)C)N(C)C(=O)C2(NC(=O)[C@H]3CCCCN3C)CCC2)OC(C)=O)n1` in this assay.
Result: T

Task: Returns: the outcome recorded for `CCC(C)(C)[C@H](NC(=O)[C@H]1CCCCN1C)C(=O)N(C)[C@H](C[C@@H](OC(C)=O)c1nc(C(=O)N[C@@H](Cc2ccccc2)C[C@H](C)C(=O)O)cs1)C(C)C` in this assay.
Result: T

Would you kindly look at the next entry?
Task: Returns: the outcome recorded for `COc1cc2c3c(n(CCCN4CCCNCC4)c(=O)c2cc1OC)-c1cc2c(cc1C3=O)OCO2` in this assay.
Result: F
